- Test system: cocklebur (Xanthium strumarium)
- assay_notes: Test B pre-/postemergence
- Assay type: in vivo
- applied_conditions: Rate 62 g/ha, Postemergence
For each of the compounds below, state its Plant response rating, Cocklebur.
// return a plain number; no unit text

Request: Endpoint output: Plant response rating, Cocklebur of `Cc1cnc(-c2ccc(Cl)cc2)nc1Cc1cccc(C(F)(F)F)c1` . Value?
Response: 7

Request: Item `CCc1cnc(-n2ccc(C(F)(F)F)n2)nc1Cc1cccc(C(F)(F)F)c1` has what recorded Plant response rating, Cocklebur?
Response: 8

Request: Consider the compound `Cc1cnc(-c2ccc(C(F)(F)F)cc2)nc1Cn1ccc(C(F)(F)F)n1` and give its measured Plant response rating, Cocklebur.
Response: 9

Request: Param item = `Cc1cnc(-c2ccc(Cl)cc2F)nc1Cc1cccc(C#N)c1` ; retrieve measured Plant response rating, Cocklebur.
Response: 2
